# Tested on: Pf W2
# Method Description: microbe, parasite or virus in culture
# Assay type: cell-based
# Particulars: Plasmodium falciparum
Attribute Measured: pIC50
// field semantics: pIC50 = negative decimal log of concentration (mol/L)

Reported pIC50 for C[C@@H]1CC[C@H]2[C@@H](C)C(=O)O[C@@H]3O[C@@]4(C)CC[C@@H]1[C@]32OO4 [Artemisinin] was 8.19

Lab note: measured pIC50 of Cc1nc(Nc2ncc(N3CCNC(C)C3)c(Nc3cc(C)n(C)n3)n2)cc(C2CC2)c1F.Cl.Cl (stereo not shown) [compound 9] was 7.55

Item: CCc1nc(N)nc(N)c1-c1ccc(Cl)cc1 [Pyrimethamine] | pIC50: 4.81

pIC50 reading for CCc1cc(Nc2ncc(N3CCN[C@H](C)C3)c(Nc3cc(C)n(C)n3)n2)nc(C)c1F.Cl.Cl [compound 8] : 7.10

---

# Method Description: Hepatocyte Clint, human
# Format: in vitro ADME
# Particulars: hepatocytes
Attribute Measured: hepatocyte CLint
The answer should read as a number with its unit following.

Kindly note the recorded hepatocyte CLint for `Cc1nc(Nc2ncc(N3CCN(C)[C@H](C)C3)c(Nc3cc(C)n(C)n3)n2)cc(C2CC2)c1F` , which is 3.1 µL/min/1e6 cells

---

# Method Description: Plasma protein binding, mouse
# Particulars: Plasma protein binding, Plasma fu, fraction unbound
Attribute Measured: fraction unbound
Just the number, please.

fraction unbound recorded for this compound, Cc1nc(Nc2ncc(N3CCN(C)[C@H](C)C3)c(Nc3cc(C)n(C)n3)n2)cc(C2CC2)c1F [compound 12] , is 0.005

---

# Method Description: Dog plasma PK, IV and oral
# Type: in vivo
# Particulars: male, Beagle, dog, plasma, po, 5.1 mg/kg, Oral 5.1 mg kg-1, Mean; read-out: t½ (converted)
Attribute Measured: half-life (h)
Note: unit h is implicit; provide only the numeric part.

Please fill in: half-life reported for Cc1nc(Nc2ncc(N3CCN(C)[C@H](C)C3)c(Nc3cc(C)n(C)n3)n2)cc(C2CC2)c1F [compound 12] = 16.1

---

# Method Description: Dog plasma PK, IV and oral
# Format: in vivo
# Particulars: male, Beagle, dog, plasma, iv, 2.1 mg/kg, IV 2.1 mg kg-1, Dog 1; read-out: t½ (converted)
Attribute Measured: half-life

Note to self: half-life recorded for `Cc1nc(Nc2ncc(N3CCN(C)[C@H](C)C3)c(Nc3cc(C)n(C)n3)n2)cc(C2CC2)c1F` was 11 h

---

# System: Dd2-6R F2 C5
# Method Description: SYBR green growth assay, Dd2-6R F2 C5
# Particulars: Plasmodium falciparum
pIC50: −log10 of the molar value.
Would you mind labelling by pIC50? At or over 8 is Criterion met, under is Criterion not met.

Query :: Does CCCCN(CCCC)CC(O)c1cc(Cl)cc2c1-c1ccc(Cl)cc1/C2=C/c1ccc(Cl)cc1 (centres unmarked) [Lumefantrine] have a reported pIC50 of at least 8?
Result :: Criterion met

Query :: Hi, just wondering whether C[C@H]1[C@H](OC(=O)CCC(=O)O)O[C@@H]2O[C@@]3(C)CC[C@H]4[C@H](C)CC[C@@H]1[C@@]24OO3 [Artesunate] shows pIC50 of 8 or higher.
Result :: Criterion met

Query :: Is pIC50 for Cc1nc(Nc2ncc(N3CCN(C)[C@H](C)C3)c(Nc3cc(C)n(C)n3)n2)cc(C2CC2)c1F [compound 12] at or above 8?
Result :: Criterion not met

Query :: Does the compound CNc1nc(Nc2ccc(OCC(F)(F)F)c(C)n2)ncc1N1CCN[C@H](C)C1 [compound 6] have recorded pIC50 that is 8 or more?
Result :: Criterion not met
